# method summary: ATG_PBREM_CIS: Attagene CIS-FACTORIAL HepG2 Assay for human Phenobarbital-responsive Enhancer Module (PBREM) (AID 2282955)
# applied conditions: HepG2 PBREM cis-reporter, Attagene multiplexed transcription; actives raise or lower the signal
Calls of active or inactive are those of the source. The calls were made as follows: active = hit-call score of the fitted dose curve at least 0.9, where 1 is the maximum; inactive = score below 0.9.
Possible outcomes: Yes for active, No for inactive

>>> label_class("CCCCOCCO")
"No"
>>> label_class("CC(=O)NC1(c2cccc(F)c2)CCN(CC[C@@]2(c3ccc(Cl)c(Cl)c3)CN(c3ccccc3)C(=O)CO2)CC1")
"Yes"
>>> label_class("CN1CCN(c2ccccc2/C=C2\\SCCN(c3ccc(Cl)c(Cl)c3)C2=O)CC1")
"No"

----------
# Read-out: Intercellular Adhesion Molecule 1 (ICAM1), ICAM1 (gene 3383)
# method summary: LTEA_HepaRG_ICAM1: Life Technologies and Expression Analysis (LTEA) Assay for Intercellular Adhesion Molecule 1 (ICAM1) using HepaRG (AID 2283507)
# applied conditions: mRNA level, 48 h; actives raise or lower the signal
Active and inactive are the calls of the source. The calls were made as follows: active = hit-call score of the fitted dose curve at least 0.9, where 1 is the maximum; inactive = score below 0.9.
Possible outcomes: active, inactive

>>> label_class("CN1CCN(c2ccccc2/C=C2\\SCCN(c3ccc(Cl)c(Cl)c3)C2=O)CC1")
"active"
>>> label_class("O=c1c(-c2ccc(O)cc2)coc2cc(O)ccc12")
"inactive"
>>> label_class("CC[C@H](C)[C@@H](C(=O)O)n1sc2ccccc2c1=O")
"inactive"
>>> label_class("NC(=O)N(O)[C@@H]1C=C[C@H](Oc2cccc(Oc3ccc(F)cc3)c2)C1")
"active"
>>> label_class("ClC1=C(Cl)C(Cl)(Cl)C(Cl)=C1Cl")
"inactive"
>>> label_class("N#C[C@@H]1CC(F)(F)CN1C(=O)CNC1CC2CCC(C1)N2c1ncccn1 (stereo partly specified)")
"inactive"
>>> label_class("CCCCCCCCCCCCc1ccccc1S(=O)(=O)O")
"active"
>>> label_class("OCCC(F)(F)C(F)(F)C(F)(F)C(F)(F)C(F)(F)C(F)(F)F")
"inactive"
>>> label_class("CC(C)(C)c1cccc(C(C)(C)C)c1O")
"inactive"
>>> label_class("CCCCCCC(=O)O")
"inactive"
>>> label_class("OC1CCC(C2CCCCC2)CC1 (stereo unspecified)")
"inactive"
>>> label_class("OCCC(F)(F)C(F)(F)C(F)(F)C(F)(F)C(F)(F)C(F)(F)C(F)(F)C(F)(F)F")
"inactive"
>>> label_class("O=C(O)Cc1cc(I)c(Oc2cc(I)c(O)c(I)c2)c(I)c1")
"active"
>>> label_class("NC(=O)N1C(=O)C(C(=O)c2cc(Cl)cs2)c2cc(F)c(Cl)cc21 (stereo unspecified)")
"active"
>>> label_class("CC#C[C@]1(O)CC[C@H]2[C@@H]3CCC4=CC(=O)CCC4=C3[C@@H](c3ccc(N(C)C)cc3)C[C@@]21C")
"active"
>>> label_class("CCCCCCCCOC(=O)CCCCCCCCC(=O)OCCCCCCCC")
"inactive"
>>> label_class("CC(C)(C)CC(C)(C)c1ccc(O)c(-n2nc3ccccc3n2)c1")
"inactive"
>>> label_class("CC(C)CCCCCCOC(=O)CCCCC(=O)OCCCCCCC(C)C")
"inactive"
>>> label_class("CCc1ccc(CCOc2ccc(CC3SC(=O)NC3=O)cc2)nc1 (stereo unspecified)")
"active"
>>> label_class("CCCOC(=O)c1ccc(O)cc1")
"inactive"
>>> label_class("Cc1oc(-c2ccccc2)nc1CCOc1ccc(C[C@H](Nc2ccccc2C(=O)c2ccccc2)C(=O)O)cc1")
"active"
>>> label_class("CC(C)(C)c1ccc(O)c(C(C)(C)C)c1")
"inactive"
>>> label_class("CC(=O)CC(C)(C)O")
"inactive"
>>> label_class("CCN(CC)CCNc1ccc(CNC=O)c2sc3ccc(OC)cc3c(=O)c12")
"active"
>>> label_class("c1ccc2c(c1)ccc1ccccc12")
"inactive"
>>> label_class("CC(=O)NC1(c2cccc(F)c2)CCN(CC[C@@]2(c3ccc(Cl)c(Cl)c3)CN(c3ccccc3)C(=O)CO2)CC1")
"active"

----------
# Read-out: Interferon-gamma inducible Protein 10 (IP10), CXCL10 (gene 3627)
# method summary: BSK_BE3C_IP10: BioMAP Diversity Plus: BE3C Assay for Interferon-gamma inducible Protein 10 (IP10) Biomarker Activity (AID 2283034)
# applied conditions: primary human bronchial epithelial cells; actives raise or lower the signal
# Method: BSK_BE3C is a cell-based, multiplexed-readout assay that uses bronchial epithelial cell, a human lung primary cell, with measurements taken at 24 hours after chemical dosing in a 96-well plate.BSK_BE3C_IP10 is an assay component measured in the BSK_BE3C assay. It measures IP-10 antibody related to regulation of gene expression using ELISA technology.Data from the assay component BSK_BE3C_IP10 was analyzed into 1 assay endpoint. […]
Active and inactive are the calls of the source. How the source made its calls: active means hit-call score of the fitted dose curve at least 0.9, where 1 is the maximum; inactive means score below 0.9.
Possible outcomes: active, inactive

>>> label_class("CC(C)CCCCCCOC(=O)CCCCC(=O)OCCCCCCC(C)C")
"inactive"
>>> label_class("CCCCCCCCCCCCCCCS(=O)(=O)Oc1ccccc1")
"inactive"
>>> label_class("CN1CCN(c2ccccc2/C=C2\\SCCN(c3ccc(Cl)c(Cl)c3)C2=O)CC1")
"active"
>>> label_class("Oc1cccc(O)c1")
"inactive"
>>> label_class("CCCCC(CC)COC(=O)CCCCC(=O)OCC(CC)CCCC (stereo not given)")
"inactive"
>>> label_class("C[C@@H]1C[C@H]2[C@@H]3CCC4=CC(=O)C=C[C@]4(C)[C@@]3(F)[C@@H](O)C[C@]2(C)[C@@]1(O)C(=O)COP(=O)(O)O")
"inactive"
>>> label_class("COc1ccc([N+](=O)[O-])cc1N")
"inactive"
>>> label_class("OC1CCCCC1")
"inactive"
>>> label_class("NCC(F)(F)C(F)(F)C(F)(F)C(F)(F)C(F)(F)C(F)(F)C(F)(F)F")
"inactive"
>>> label_class("COCC(C)O (stereo not given)")
"inactive"
>>> label_class("Cc1cc(CCN2CCN(c3nsc4ccccc34)CC2)cc2c1NC(=O)CC2(C)C")
"active"
>>> label_class("CC(=O)NC1(c2cccc(F)c2)CCN(CC[C@@]2(c3ccc(Cl)c(Cl)c3)CN(c3ccccc3)C(=O)CO2)CC1")
"active"
>>> label_class("CN1CCC[C@H]1c1cccnc1")
"inactive"
>>> label_class("CCOC(=O)CC(O)(CC(=O)OCC)C(=O)OCC")
"inactive"
>>> label_class("NC(=O)N(O)[C@@H]1C=C[C@H](Oc2cccc(Oc3ccc(F)cc3)c2)C1")
"active"
>>> label_class("CCc1nn(C2CCCCC2)c2cc(C3(C#N)CCC(C(=O)O)CC3)ccc12 (stereo not given)")
"active"
>>> label_class("Oc1cc2ccccc2c2ccccc12")
"active"
>>> label_class("O=C(OCCOCCOC(=O)c1ccccc1)c1ccccc1")
"inactive"
>>> label_class("OC1CCC(C2CCCCC2)CC1 (stereo not given)")
"inactive"
>>> label_class("CCCCCCCCC(=O)O")
"inactive"
>>> label_class("CC(O)CO (stereo not given)")
"inactive"
>>> label_class("NC(=O)N1C(=O)C(C(=O)c2cc(Cl)cs2)c2cc(F)c(Cl)cc21 (stereo not given)")
"active"
>>> label_class("CC(C)(C)c1cccc(C(C)(C)C)c1O")
"inactive"
>>> label_class("CCN(CC)CCNc1ccc(CNC=O)c2sc3ccc(OC)cc3c(=O)c12")
"active"
>>> label_class("CC(C)(C)c1ccc(O)c(C(C)(C)C)c1")
"active"

----------
# method summary: CCTE_Shafer_MEA_acute_spike_number: CCTE's Neural Acute Assay for Total Number of Spikes, Shafer Lab (AID 2284008)
Active and inactive are the calls of the source. The calls were made as follows: active = hit-call score of the fitted dose curve at least 0.9, where 1 is the maximum; inactive = score below 0.9.
Possible outcomes: class 1 for active, class 0 for inactive

>>> label_class("O=C(O)c1ccccc1C(c1ccc(O)cc1)c1ccc(O)cc1")
"class 0"
>>> label_class("NC(=O)N(O)[C@@H]1C=C[C@H](Oc2cccc(Oc3ccc(F)cc3)c2)C1")
"class 0"
>>> label_class("OCCC(F)(F)C(F)(F)C(F)(F)C(F)(F)C(F)(F)C(F)(F)C(F)(F)C(F)(F)F")
"class 0"
>>> label_class("CCCCCCCCCCCCN1CCCC1=O")
"class 0"
>>> label_class("CCCCCCCCCCCCCCCS(=O)(=O)Oc1ccccc1")
"class 0"
>>> label_class("CC(C)CCCCCCOC(=O)CCCCC(=O)OCCCCCCC(C)C")
"class 0"
>>> label_class("CC(=O)NC1(c2cccc(F)c2)CCN(CC[C@@]2(c3ccc(Cl)c(Cl)c3)CN(c3ccccc3)C(=O)CO2)CC1")
"class 1"
>>> label_class("OC1CCC(C2CCCCC2)CC1 (stereo not drawn)")
"class 1"

----------
# Read-out: X-box binding protein 1 (XBP1), XBP1 (gene 7494)
# method summary: LTEA_HepaRG_XBP1: Life Technologies and Expression Analysis (LTEA) Assay for X-box binding protein 1 (XBP1) using HepaRG (AID 2283540)
# applied conditions: mRNA level, 48 h; actives raise or lower the signal
The source made the active and inactive calls. How the source made its calls: active means hit-call score of the fitted dose curve at least 0.9, where 1 is the maximum; inactive means score below 0.9.
Possible outcomes: active, inactive

>>> label_class("CC(=O)NC1(c2cccc(F)c2)CCN(CC[C@@]2(c3ccc(Cl)c(Cl)c3)CN(c3ccccc3)C(=O)CO2)CC1")
"inactive"
>>> label_class("COc1ccc([N+](=O)[O-])cc1N")
"inactive"
>>> label_class("CC(C)(C)c1cccc(C(C)(C)C)c1O")
"inactive"
>>> label_class("Oc1cccc(O)c1")
"inactive"
>>> label_class("CCCCCCCCC(=O)O")
"inactive"
>>> label_class("CCC(C)(C)C1CCC(O)CC1 (stereo not given)")
"inactive"
>>> label_class("COCC(C)OCC(C)O (stereo not given)")
"active"
>>> label_class("CC[C@H](C)[C@@H](C(=O)O)n1sc2ccccc2c1=O")
"inactive"
>>> label_class("Oc1cc2ccccc2c2ccccc12")
"inactive"
>>> label_class("CC(C)CCCCCCOC(=O)CCCCC(=O)OCCCCCCC(C)C")
"inactive"
>>> label_class("c1ccc2c(c1)Cc1ccccc1-2")
"inactive"
>>> label_class("CCCCC(CC)COC(=O)CCCCC(=O)OCc1ccccc1 (stereo not given)")
"inactive"
>>> label_class("COC(=O)CCCCC(=O)OC")
"inactive"
>>> label_class("Nc1cccc2c(N)cccc12")
"inactive"
>>> label_class("ClC1=C(Cl)C(Cl)(Cl)C(Cl)=C1Cl")
"inactive"
>>> label_class("CC(=O)CC(C)(C)O")
"inactive"
>>> label_class("C[C@@H]1C[C@H]2[C@@H]3CCC4=CC(=O)C=C[C@]4(C)[C@@]3(F)[C@@H](O)C[C@]2(C)[C@@]1(O)C(=O)COP(=O)(O)O")
"inactive"
>>> label_class("CC(C)(C)c1cc(C(C)(C)C)c(O)c(C(C)(C)C)c1")
"inactive"
>>> label_class("Cc1cc(C)c(O)c(C)c1")
"inactive"
>>> label_class("CC1=C(/C=C/C(C)=C/C=C/C(C)=C/C(=O)O)C(C)(C)CCC1")
"inactive"
>>> label_class("OCCC(F)(F)C(F)(F)C(F)(F)C(F)(F)C(F)(F)C(F)(F)F")
"inactive"
>>> label_class("CN(C)C=O")
"inactive"
>>> label_class("O=[N+]([O-])c1ccc(O)cc1")
"inactive"
>>> label_class("C#C[C@]1(O)CC[C@H]2[C@@H]3CCC4=CC(=O)CC[C@@H]4[C@H]3CC[C@@]21C")
"inactive"
>>> label_class("NC(=O)N1C(=O)C(C(=O)c2cc(Cl)cs2)c2cc(F)c(Cl)cc21 (stereo not given)")
"active"
